Listed here: items and their measured TGI.
- Test system: HS 578T breast
- test_details: NCI tumour cell line growth inhibition, 48 h

Examples with their reported TGI follow.
>>> df
                                   compound  endpoint  reported_measurement
0  O=C1/C(=C/c2ccccc2[N+](=O)[O-])Cc2ccccc21       TGI              > 100 µM
1  Cc1ccccc1-n1c(=O)c2ncn(C3CCCO3)c2n(-c2ccccc2C)c1=S (stereo not drawn)       TGI              > 100 µM

Next item in the queue.
Record CCCN(CCS(C)(=O)=O)Cc1ccc(-c2ccc3ncnc(Nc4ccc(OCc5cccc(F)c5)c(Cl)c4)c3c2)o1 / HS 578T breast, TGI recorded as > 25 µM

---

- Test system: 786-0 renal
- test_details: NCI tumour cell line growth inhibition, 48 h
endpoint: TGI

Examples with their reported TGI follow.
In [3]: df
Out[3]:
                                   compound  reported_measurement
0  CCN1C(=O)c2cc(OC)c(OC)cc2C(=O)C12OC(=O)c1cc3c(cc12)OCO3 (stereo unspecified)               53.7 µM
1  O=S(=O)(Nc1cc(Sc2cccc3cccnc23)c(O)c2ccccc12)c1ccc(F)cc1               6.85 µM

Documented TGI of Cc1n[nH]c(=O)n1N1C(=O)CCCC1=O : > 100 µM

Documented TGI of COc1ccc2c(c1)C(=O)C1CC(=O)CCC21 (stereo unspecified) : > 100 µM

Documented TGI of O=C(NC1=C(Cl)C(=O)c2ccccc2C1=O)c1ccc(F)cc1 : > 100 µM

Documented TGI of O=C(CSc1nnc(Cc2ccccc2)o1)Nc1ccccc1 : > 100 µM

Documented TGI of O=C1OC(=O)C(=C\c2ccc3c(c2)OCO3)/C1=C/c1ccc2c(c1)OCO2 : > 100 µM

Documented TGI of CC(=O)Nc1ccc(C(O)/C(=N/N)c2nc3ccc(Cl)cc3[nH]c2=O)cc1 (stereo unspecified) : > 100 µM

Documented TGI of CC(=O)CN(Cc1cc(C)c2c(c1)c1ccccc1n2Cc1ccccc1)S(=O)(=O)c1ccc(C)cc1 : > 100 µM

---

- Tested on: CCRF-CEM leukemia
- test_details: NCI tumour cell line growth inhibition, 48 h; in the data active = GI50 below about 0.43 µM; inactive = the rest
// one of active, inactive, no free text

Sample answers from the record:
>>> print(df.to_string())
                                   compound     label
0  O=C1CCC(N2Cc3cc(CNC(=O)C(F)(F)c4ccc(Cl)cc4)ccc3C2=O)C(=O)N1 (stereo not given)    active
1  O=S(=O)(Nc1cc(Sc2cccc3cccnc23)c(O)c2ccccc12)c1ccc(F)cc1  inactive

Could you kindly confirm the outcome this assay logged for O=C1C(=C([O-])c2ccccc2)C(=O)c2ccccc21.O=C1C(=C([O-])c2ccccc2)C(=O)c2ccccc21.[Fe+2] ? inactive

Could you kindly confirm the outcome this assay logged for CC(C)C[C@H](NC(=O)CNC(=O)c1cc(Cl)ccc1Cl)B1OC(=O)CC(CC(=O)O)(C(=O)O)O1 (stereo not given in full) ? active

Could you kindly confirm the outcome this assay logged for FC(F)(F)c1ccc(-c2cnc(-c3ncon3)nc2NC2CCCCCC2)cc1 ? inactive
